Would you kindly list LD50 for each of these compounds?
Assay: Acute Toxicity Test, intravenous, mice
Assay type: in vivo
Settings: mouse, in vivo
Structures can show the parent of a compound that is named as a salt.
Express your answer in mg/kg, writing the number without its unit.

Q: I would be grateful if you could share the reported LD50 for COc1ccc(CCNCC(O)COc2ccc(NC(N)=O)c3c2CCC(=O)N3)cc1OC (stereo not drawn) [Compound J, hydrochloride] .
A: 143

Q: I would be grateful if you could share the reported LD50 for CC(C)(C)NCC(O)COc1cccc2[nH]c(=O)ccc12 (stereo not drawn) [Compound B, hydrochloride] .
A: 44.6

Q: I would be grateful if you could share the reported LD50 for CC(C)NCC(O)COc1cccc2c1NC(=O)CC2 (stereo not drawn) [Compound I, hydrochloride] .
A: 81.6
